Protocol notes: Solubility of CD101 acetate in various media
Type: physicochemical
Details: aqueous buffer; Phosphate buffered saline (PBS buffer), pH 7.4; read-out: Solubility
Text: Table 1 below provides the solubility of CD101 acetate in different solutions.
Starred links: 1 amine or outer side, 2 acyl side, 3 side chain; linkers in the order of their positions; H or OH if unused. Positions of bridges follow the written chain, without caps; N, C: chain ends. Non-standard residues stand in square brackets, D forms with d. Residues, ends and D or L forms follow the SMILES beside them. *: point of attachment. Orn(4R-OH,5R-OCH2CH2NMe3+) = C[N+](C)(C)CCO[C@@H](N[*:3])[C@H](O)C[C@H](N[*:1])C(=O)[*:2]; pTerphenylCO(4''-OnC5H11) = CCCCCOc1ccc(-c2ccc(-c3ccc(C(=O)*)cc3)cc2)cc1; hTyr(3S-OH,4S-OH) = N[C@H](C(=O)O)[C@H](O)[C@@H](O)c1ccc(O)cc1; Pro(3S-OH,4S-Me) = C[C@H]1CN[C@H](C(=O)O)[C@H]1O; Hyp = O=C(O)[C@@H]1C[C@@H](O)CN1
Parameter: solubility

Query: Entry CCCCCOc1ccc(-c2ccc(-c3ccc(C(=O)N[C@H]4C[C@@H](O)[C@@H](OCC[N+](C)(C)C)NC(=O)[C@@H]5[C@@H](O)[C@@H](C)CN5C(=O)[C@H]([C@@H](C)O)NC(=O)[C@H]([C@H](O)[C@@H](O)c5ccc(O)cc5)NC(=O)[C@@H]5C[C@@H](O)CN5C(=O)[C@H]([C@@H](C)O)NC4=O)cc3)cc2)cc1 [CD101 acetate] ({pTerphenylCO(4''-OnC5H11)}-[Orn(4R-OH,5R-OCH2CH2NMe3+)]T[Hyp][hTyr(3S-OH,4S-OH)]T[Pro(3S-OH,4S-Me)]; lactam 1-C) : reported solubility = ?
Result: 5 to 7 µg/mL

Reference source for all entries: patent US11819533B2
